Every entry's value here was drawn from patent US12357603B2.

# target_of_assay: Recombinant human His-tagged Kat6a protein (amino acids 194-810) (Homo sapiens (Human))
# Sequence (Q92794 194-810): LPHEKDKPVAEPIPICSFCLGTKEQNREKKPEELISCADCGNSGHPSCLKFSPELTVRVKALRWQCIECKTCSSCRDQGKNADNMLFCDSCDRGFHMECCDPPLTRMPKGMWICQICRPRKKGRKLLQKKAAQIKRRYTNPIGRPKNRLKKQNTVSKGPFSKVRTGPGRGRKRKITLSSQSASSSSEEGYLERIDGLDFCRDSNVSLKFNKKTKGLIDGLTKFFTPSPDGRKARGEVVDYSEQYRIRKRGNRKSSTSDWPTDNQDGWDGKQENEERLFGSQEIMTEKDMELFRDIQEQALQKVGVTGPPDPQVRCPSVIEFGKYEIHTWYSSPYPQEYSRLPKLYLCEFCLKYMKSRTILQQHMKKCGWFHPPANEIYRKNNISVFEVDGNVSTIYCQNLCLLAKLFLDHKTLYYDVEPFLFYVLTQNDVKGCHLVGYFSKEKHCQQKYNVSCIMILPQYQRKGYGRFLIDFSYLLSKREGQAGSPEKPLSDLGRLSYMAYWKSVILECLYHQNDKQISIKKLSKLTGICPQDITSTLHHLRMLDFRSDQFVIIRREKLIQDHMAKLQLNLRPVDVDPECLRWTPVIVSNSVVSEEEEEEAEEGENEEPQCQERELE
# measurement_notes: Kat6a activity assay (TR-FRET, acetylation of biotinylated Histone-H4-derived peptide)
# experimental_conditions: 60 mins at 22° C., read-out: KAT6A-DPF/HAT domain IC50 [mol/l] (arithmetic mean)
pIC50: −log10 of the molar value.
Label TRUE when pIC50 is at or above 6; anything below gets FALSE.

INSERT INTO measurements (molecule, target_of_assay, label_class) VALUES
  ('Cc1cccnc1CS(=O)(=O)NC(=O)c1cc2ccc(N(C)C)cc2o1 [Example 105]', 'Recombinant human His-tagged Kat6a protein (amino acids 194-810) (Homo sapiens (Human))', 'FALSE'),
  ('CC(C)Oc1ccc(C(C)(C)C)cc1S(=O)(=O)NC(=O)c1cc2ccc(N(C)C)cc2o1 [Example 183]', 'Recombinant human His-tagged Kat6a protein (amino acids 194-810) (Homo sapiens (Human))', 'TRUE'),
  ('CN(c1ccccc1)c1ccc2cc(C(=O)NS(=O)(=O)c3ccccc3Cl)oc2c1 [Example 8]', 'Recombinant human His-tagged Kat6a protein (amino acids 194-810) (Homo sapiens (Human))', 'FALSE');

Q) pIC50 >= 6 for CN(C)c1ccc2cc(C(=O)NS(=O)(=O)c3cccc4cccnc34)oc2c1 [Example 73] ?
A) TRUE

Q) Tell me whether pIC50 is at least 6 here: CC(Oc1cccc(OC2CCC2)c1S(=O)(=O)NC(=O)c1cc2ccc(N(C)C)cc2o1)C(F)(F)F (racemic) [Example 84]
A) TRUE

Q) Is reported pIC50 greater than or equal to 6 here: Cc1ccc(S(=O)(=O)NC(=O)c2cc3ccc(N(C)C)cc3o2)c(OC(F)F)c1 [Example 159]
A) TRUE
